Kindly state TGI for each of the entries shown.
System: HS 578T breast
assay.explanation: NCI tumour cell line growth inhibition, 48 h

Below: 5 compounds and their reported TGI.
compound	assay.endpoint	result
C=C1C(=O)O[C@H]2[C@@H]3O[C@@](C)(CC/C=C(\C)CCC[C@@H]2C)[C@H](O)C[C@@H]13	TGI	25.9 µM
C[N+](C)(C)CC(=O)N/N=C\c1c(O)ccc2ccccc12	TGI	56.5 µM
O=c1cc(O)c1=O	TGI	> 100 µM
O=C(c1ccccc1)N1N=C(C(F)(F)F)CC1(O)C(F)(F)F (stereo unspecified)	TGI	> 100 µM
CCCCCCCC(=O)N1C2CC3CCC2(CS1(=O)=O)C3(C)C (stereo unspecified)	TGI	> 100 µM

Here is another compound to look at.
q: Give the measured TGI of `CC(C)CC(=O)O[C@H]1C(=O)O[C@@H]2C[C@H]3[C@H](C)C(=O)C(O[C@@H]4O[C@H](CO)[C@@H](O)[C@H](O)[C@H]4O)=C[C@]3(C)[C@H]3[C@@H](O)[C@H](O)[C@]4(C(=O)O)OC[C@]32[C@@H]14` .
a: > 100 µM
